Test system: ncRNAs (SEQ ID NO 28-89)
Experiment: ncRNA arrays of melanocytes, keratinocytes, normal skin, melanoma cell lines and patient samples
Set-up: species or system human
Settings: melanoma patient 29 sample compared to normal skin
ncRNA array expression, patient 29 less than 0.2 is condition met; ncRNA array expression, patient 29 greater than or equal to 0.2 is condition not met.

[
  {
    "substance": "SEQ ID NO 51 (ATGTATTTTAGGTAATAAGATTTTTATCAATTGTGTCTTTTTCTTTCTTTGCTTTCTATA; listed as DNA, chemistry not given here; listed as Homo sapiens)",
    "label class": "condition not met"
  },
  {
    "substance": "SEQ ID NO 73 (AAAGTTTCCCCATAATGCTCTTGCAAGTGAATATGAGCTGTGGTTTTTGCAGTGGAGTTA; listed as DNA, chemistry not given here; listed as Homo sapiens)",
    "label class": "condition not met"
  },
  {
    "substance": "SEQ ID NO 42 (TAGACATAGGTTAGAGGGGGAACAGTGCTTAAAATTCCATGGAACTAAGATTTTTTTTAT; listed as DNA, chemistry not given here; listed as Homo sapiens)",
    "label class": "condition met"
  },
  {
    "substance": "SEQ ID NO 67 (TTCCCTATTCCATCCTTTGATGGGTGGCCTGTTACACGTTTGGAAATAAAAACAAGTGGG; listed as DNA, chemistry not given here; listed as Homo sapiens)",
    "label class": "condition not met"
  },
  {
    "substance": "SEQ ID NO 89 (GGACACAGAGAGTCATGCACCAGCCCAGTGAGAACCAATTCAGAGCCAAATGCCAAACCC; listed as DNA, chemistry not given here; listed as Homo sapiens)",
    "label class": "condition met"
  },
  {
    "substance": "SEQ ID NO 68 (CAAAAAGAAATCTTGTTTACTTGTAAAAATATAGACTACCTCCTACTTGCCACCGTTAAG; listed as DNA, chemistry not given here; listed as Homo sapiens)",
    "label class": "condition met"
  },
  {
    "substance": "SEQ ID NO 48 (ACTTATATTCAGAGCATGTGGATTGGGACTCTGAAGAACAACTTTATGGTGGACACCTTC; listed as DNA, chemistry not given here; listed as Homo sapiens)",
    "label class": "condition met"
  },
  {
    "substance": "SEQ ID NO 47 (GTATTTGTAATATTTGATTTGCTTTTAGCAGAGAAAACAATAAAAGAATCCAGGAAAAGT; listed as DNA, chemistry not given here; listed as Homo sapiens)",
    "label class": "condition met"
  },
  {
    "substance": "SEQ ID NO 49 (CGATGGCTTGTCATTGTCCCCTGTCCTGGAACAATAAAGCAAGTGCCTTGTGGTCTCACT; listed as DNA, chemistry not given here; listed as Homo sapiens)",
    "label class": "condition met"
  },
  {
    "substance": "SEQ ID NO 66 (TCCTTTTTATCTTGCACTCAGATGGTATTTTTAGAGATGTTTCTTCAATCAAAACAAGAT; listed as DNA, chemistry not given here; listed as Homo sapiens)",
    "label class": "condition not met"
  },
  {
    "substance": "SEQ ID NO 74 (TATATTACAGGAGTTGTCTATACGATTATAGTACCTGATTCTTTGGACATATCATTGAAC; listed as DNA, chemistry not given here; listed as Homo sapiens)",
    "label class": "condition not met"
  },
  {
    "substance": "SEQ ID NO 70 (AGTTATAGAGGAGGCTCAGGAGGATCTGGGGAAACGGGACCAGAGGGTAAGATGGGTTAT; listed as DNA, chemistry not given here; listed as Homo sapiens)",
    "label class": "condition met"
  }
]

---

Reported ncRNA array expression, patient 7 values for the following substances.
Tested on: ncRNAs (SEQ ID NO 28-89)
Assay: ncRNA arrays of melanocytes, keratinocytes, normal skin, melanoma cell lines and patient samples
Design: species or system human
Conditions: melanoma patient 7 sample compared to normal skin

[
  {
    "substance": "SEQ ID NO 60 (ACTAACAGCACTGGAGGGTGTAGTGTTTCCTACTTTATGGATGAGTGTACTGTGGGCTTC; listed as DNA, chemistry not given here; listed as Homo sapiens)",
    "ncRNA array expression, patient 7": 2.958
  },
  {
    "substance": "SEQ ID NO 49 (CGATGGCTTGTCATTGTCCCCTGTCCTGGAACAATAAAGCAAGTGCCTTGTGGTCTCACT; listed as DNA, chemistry not given here; listed as Homo sapiens)",
    "ncRNA array expression, patient 7": "−1.477"
  },
  {
    "substance": "SEQ ID NO 67 (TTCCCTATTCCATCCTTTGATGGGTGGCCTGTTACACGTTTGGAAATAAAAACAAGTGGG; listed as DNA, chemistry not given here; listed as Homo sapiens)",
    "ncRNA array expression, patient 7": 2.486
  },
  {
    "substance": "SEQ ID NO 61 (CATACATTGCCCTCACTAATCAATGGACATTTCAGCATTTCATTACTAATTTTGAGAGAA; listed as DNA, chemistry not given here; listed as Homo sapiens)",
    "ncRNA array expression, patient 7": 2.069
  },
  {
    "substance": "SEQ ID NO 40 (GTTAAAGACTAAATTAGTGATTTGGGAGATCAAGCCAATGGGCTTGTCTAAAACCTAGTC; listed as DNA, chemistry not given here; listed as Homo sapiens)",
    "ncRNA array expression, patient 7": 0.4373
  },
  {
    "substance": "SEQ ID NO 73 (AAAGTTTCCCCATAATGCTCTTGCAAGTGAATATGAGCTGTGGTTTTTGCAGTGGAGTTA; listed as DNA, chemistry not given here; listed as Homo sapiens)",
    "ncRNA array expression, patient 7": "−0.179"
  }
]

---

System: ncRNAs (SEQ ID NO 28-89)
Test: ncRNA arrays of melanocytes, keratinocytes, normal skin, melanoma cell lines and patient samples
Set-up: species or system human
Conditions: melanoma patient 6 sample compared to normal skin
value kind: ncRNA array expression, patient 6

[
  {
    "substance": "SEQ ID NO 71 (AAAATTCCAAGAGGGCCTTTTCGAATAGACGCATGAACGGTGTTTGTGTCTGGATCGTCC; listed as DNA, chemistry not given here; listed as Homo sapiens)",
    "value observed": 1.002
  },
  {
    "substance": "SEQ ID NO 48 (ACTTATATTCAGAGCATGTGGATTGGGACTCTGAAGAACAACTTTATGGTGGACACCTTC; listed as DNA, chemistry not given here; listed as Homo sapiens)",
    "value observed": "−0.1733"
  },
  {
    "substance": "SEQ ID NO 37 (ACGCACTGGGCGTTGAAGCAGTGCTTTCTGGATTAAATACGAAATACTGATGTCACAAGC; DNA, backbone and methylation of C not given here; listed as Homo sapiens)",
    "value observed": "−0.3494"
  },
  {
    "substance": "SEQ ID NO 28 (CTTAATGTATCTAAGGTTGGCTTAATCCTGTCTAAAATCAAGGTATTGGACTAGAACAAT; DNA, backbone and methylation of C not given here; listed as Homo sapiens)",
    "value observed": "−0.1399"
  },
  {
    "substance": "SEQ ID NO 49 (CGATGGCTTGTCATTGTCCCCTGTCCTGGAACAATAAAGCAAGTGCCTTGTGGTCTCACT; listed as DNA, chemistry not given here; listed as Homo sapiens)",
    "value observed": 0.7986
  },
  {
    "substance": "SEQ ID NO 35 (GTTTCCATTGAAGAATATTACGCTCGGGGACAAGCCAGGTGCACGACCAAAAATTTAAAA; DNA, backbone and methylation of C not given here; listed as Homo sapiens)",
    "value observed": 2.07
  },
  {
    "substance": "SEQ ID NO 65 (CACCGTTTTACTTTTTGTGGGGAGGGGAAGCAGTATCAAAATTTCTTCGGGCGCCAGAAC; listed as DNA, chemistry not given here; listed as Homo sapiens)",
    "value observed": "−1.643"
  },
  {
    "substance": "SEQ ID NO 33 (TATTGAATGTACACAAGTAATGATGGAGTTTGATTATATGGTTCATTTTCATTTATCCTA; DNA, backbone and methylation of C not given here; listed as Homo sapiens)",
    "value observed": 1.768
  }
]

---

Tested on: ncRNAs (SEQ ID NO 28-89)
Experiment: ncRNA arrays of melanocytes, keratinocytes, normal skin, melanoma cell lines and patient samples
Design: species or system human
Settings: melanoma patient 26 sample compared to normal skin
Reported ncRNA array expression, patient 26 values for the following substances.

[
  {
    "substance": "SEQ ID NO 52 (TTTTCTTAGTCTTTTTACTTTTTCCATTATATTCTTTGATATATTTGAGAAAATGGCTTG; listed as DNA, chemistry not given here; listed as Homo sapiens)",
    "ncRNA array expression, patient 26": 3.428
  },
  {
    "substance": "SEQ ID NO 83 (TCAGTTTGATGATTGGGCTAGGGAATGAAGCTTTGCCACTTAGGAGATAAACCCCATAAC; listed as DNA, chemistry not given here; listed as Homo sapiens)",
    "ncRNA array expression, patient 26": "−1.405"
  },
  {
    "substance": "SEQ ID NO 88 (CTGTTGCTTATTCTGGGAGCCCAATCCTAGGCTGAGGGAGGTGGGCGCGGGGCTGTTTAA; listed as DNA, chemistry not given here; listed as Homo sapiens)",
    "ncRNA array expression, patient 26": "−1.942"
  },
  {
    "substance": "SEQ ID NO 68 (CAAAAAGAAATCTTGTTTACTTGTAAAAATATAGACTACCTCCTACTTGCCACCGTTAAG; listed as DNA, chemistry not given here; listed as Homo sapiens)",
    "ncRNA array expression, patient 26": "−1.329"
  },
  {
    "substance": "SEQ ID NO 57 (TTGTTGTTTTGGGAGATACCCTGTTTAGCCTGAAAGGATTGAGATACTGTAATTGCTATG; listed as DNA, chemistry not given here; listed as Homo sapiens)",
    "ncRNA array expression, patient 26": 1.989
  }
]
